Below: a set of entries, each annotated with reported folding stability dG unfold.
assay: folding stability dG unfold from chymotrypsin proteolysis; higher = more stable
Quantity name: folding stability dG unfold

• SAMTPEEIKERLAAELPPSAEVMTTETFKEGDVEYVKITLRTPDSLSEATYNLETGEIERTPIGLDVPQSAG [r14_737_JUSTAS] = 0.923 kcal/mol
• SAGGSAGGSAGPKIPKNYKIVATYTVPPTNKKKLILYDPKTNKPLIFDTVSGKIYPFGKKSAGGSAGGSAGG [r11_268_TrMRF] = 2 kcal/mol
• SKKVKITEITFPEGATFDGKKVTVTIKIVDEETGTVTITEITVDKNGKVTIKEVTVKVDPKTGKIVEITPSA [r9_122_TrROS_Hall] = 2.02 kcal/mol
• MKTIEIEIKLSPEIKEALKEGKPLSLEELVNKIKEEIAKKLGLKEVKVKKIEIKKDENGEIIIKVTIEVKPS [r1_290_TrROS_Hall] = 2.77 kcal/mol
• SAGGSAGGGDLVVYRLEVRRFEPGTGRLVETRSRTVVVPKEDLPELLERIPPGYEVLRIEAFPESAGGSAGG [r6_776_TrMRF] = 0.361 kcal/mol
• SAGGSAMFTSSTSTDPATGLRRTTTLFPDSSAAVTTTVAVPPVPPLSPEAVAAGEAAAAAGRPPAVSAGGSA [r15_631_JUSTAS] = 0.59 kcal/mol

src = the supplement of paper PMC12764529
